testSummary: MB-102 pig plasma concentration after IV dosing
Type: in vivo
testSettings: Yorkshire, plasma, 3.2 mg/kg; pig 48019, IV, 3.2 mpk, 150 min; read-out: MB-102 Pig Plasma Conc.
readout: concentration at 150 min (ng/mL)
Return type: number; implicit unit ng/mL.

Prompt: Bench note: what concentration at 150 min did Nc1nc(C(=O)N[C@H](CO)C(=O)O)c(N)nc1C(=O)N[C@H](CO)C(=O)O show?
Response: 2700

====

testSummary: MB-102 pig plasma concentration after IV dosing
Type: in vivo
testSettings: Yorkshire, plasma, 3.2 mg/kg; pig 48019, IV, 3.2 mpk, 270 min; read-out: MB-102 Pig Plasma Conc.
Protocol: Juvenile Yorkshire pigs weighing approximately 25 kg were anesthetized, their body temperature stabilized, and an IV port surgically placed. […] After the skin was dry the sensors were attached with commercially available skin adhesive and background skin auto-fluorescence measurements were recorded. […] At this point glomerular elimination of MB-102 by the kidneys led to a decrease of fluorescence signal over time. […]
readout: concentration at 270 min (ng/mL)
Return type: number; implicit unit ng/mL.

Prompt: Bench note: what concentration at 270 min did Nc1nc(C(=O)N[C@H](CO)C(=O)O)c(N)nc1C(=O)N[C@H](CO)C(=O)O show?
Response: 1320
